- test-description: TOX21_p53_BLA_p2_viability: Viability Assessment in the Tox21 HCT-116 p53 Agonism Beta-lactamase Assay, Phase 2 (AID 2283591);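 note: compound exposure lasted 16 h at 37 °C; actives lower the ATP signal meaning cytotoxicity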
Inconclusive results are not listed. Activity calls are given as the source filed them. Rule for the calls: active = hit-call score of the fitted dose curve at least 0.9, where 1 is the maximum; inconclusive = response in the unintended direction; inactive = score below 0.9.
# valid calls are active, inactive; nothing else

Q: GET /call?item= "CC(C)(C)C(=O)O" returns the recorded outcome of this test.
A: inactive

Q: Could you please tell me the result logged for "CC(C)(c1ccc(Oc2ccc3c(c2)C(=O)OC3=O)cc1)c1ccc(Oc2ccc3c(c2)C(=O)OC3=O)cc1" in this assay?
A: inactive

Q: State the result this test recorded for "C=Cc1ccc(S(=O)(=O)O)cc1" .
A: inactive

Q: // outcome(item) with item = "O=C(c1ccccc1O)c1ccccc1O"
A: inactive

Q: Test call for this compound, please: "CN(C)CC/C=C1/c2ccccc2COc2ccc(CC(=O)O)cc21"
A: inactive

Q: Recorded test outcome, item CC(CCl)OC(C)CCl (stereo unspecified)
A: inactive

Q: What classification did "CCC(C)[O-].CCC(C)[O-].CCOC(=O)/C=C(/C)[O-].[Al+3]" end up with in this test?
A: inactive

Q: Per the records of this test, what outcome belongs to "c1ccc(CCNc2nc(-c3ccccc3)cs2)cc1" ?
A: inactive

Q: For CC(=O)OC(C)C[N+](C)(C)C (stereo unspecified) , which call appears in the assay record?
A: inactive

Q: State the result this test recorded for "c1ccc2c(CC3=NCCN3)cccc2c1" .
A: inactive

Q: What call does the record list for "COc1ccc(C(=O)CCC(=O)O)c2ccccc12" ?
A: inactive

Q: Recorded test outcome, item "C[N+]1([O-])CCOCC1"
A: inactive

Q: What call does the record list for "C=CCn1cc[n+](C)c1" ?
A: inactive

Q: Recorded test call requested for "OCCCC1CCCCC1"
A: inactive

Q: Status in this test for "CCCCS" ?
A: inactive

Q: Any idea what this test logged for "C1CCN2C[C@@H]3C[C@@H](CN4CCCC[C@@H]34)[C@H]2C1" ?
A: inactive

Q: Hi, sorry to bother you, what did the test record for "O=C(O)c1ccccc1OP(=O)(O)O" ?
A: inactive

Q: Identify the outcome logged in this assay for the compound shown: "Oc1ccc(Sc2ccc(O)cc2)cc1"
A: inactive

Q: # outcome recorded in this test, key = "CC(=O)OCCN(CCOC(C)=O)c1ccc(N=Nc2ccc([N+](=O)[O-])cc2C#N)cc1"
A: inactive

Q: Status in this test for Cc1ccccc1OCC(O)CO (stereo unspecified) ?
A: inactive

Q: Recorded test outcome, item "C[C@H](/C=C/[C@H](C)C(C)(C)O)[C@H]1CC[C@H]2/C(=C/C=C3C[C@@H](O)C[C@H](O)C3)CCC[C@]12C"
A: inactive

Q: Please indicate how the test categorized "O=C(N/N=C/c1ccccc1O)c1ccncc1" .
A: inactive

Q: Could you please tell me the result logged for "CC[C@@]1(O)C(=O)OCc2c1cc1n(c2=O)Cc2cc3c(CN(C)C)c(O)ccc3nc2-1" in this assay?
A: active

Q: State the result this test recorded for "CN(C)c1ccc(/C=C/c2ccc([N+](=O)[O-])cc2)cc1" .
A: inactive

Q: Look up the recorded call for CC(C)C(O)(c1ccc(OC(F)(F)F)cc1)c1cncnc1 (stereo unspecified) in this test.
A: inactive

Q: Lab log entry: "CCC(=O)O[C@H]1CC[C@H]2[C@@H]3CCc4cc(O)ccc4[C@H]3CC[C@]12C" — outcome as called in the assay?
A: inactive
